system: Plasma; experiment: Anti-platelet aggregation in platelet-rich plasma of male human assessed as inhibition of ADP-induced platelet aggregation preincubated for 15 mins followed by ADP addition measured up to 10 mins by Born's turbidometric method; assay type: functional, cell-free

| entrySmiles | IC50 / µM |
| --- | --- |
| Cc1nc(-c2cccc(C#N)c2)n(OCc2ccc(C#N)cc2)c1C(=O)O | 4.24 |
| N#Cc1cccc(-c2nc(C(F)F)c(C(=O)O)n2OCc2csc(N)n2)c1 | 3.35 |
| CC(C)(C)c1ccccc1Oc1ncccc1NC(=O)Nc1ccc(OC(F)(F)F)cc1 | 3.4 |
| CCCSc1nc(N[C@@H]2C[C@H]2c2ccc(F)c(F)c2)c2nnn([C@@H]3C[C@H](OCCO)[C@@H](O)[C@H]3O)c2n1 | 0.69 |
| N#Cc1cccc(Oc2nc(-c3cccc(C#N)c3)ncc2C(=O)O)c1 | 3.63 |

* * *

The entries below come with measured inhibition at 2 h, 10 µM values attached.
biological target: CYP1A2 (Homo sapiens, UniProt P05177); assay: Inhibition of CYP1A2 in human liver microsomes using phenacetin as substrate at 10 uM preincubated for 5 min followed by NADPH addition measured after 120 mins by LC-MS/MS analysis relative to control; assay type: ADME, Microsome; conditions: probe phenacetin, time 125 min
Sequence (P05177 whole entry): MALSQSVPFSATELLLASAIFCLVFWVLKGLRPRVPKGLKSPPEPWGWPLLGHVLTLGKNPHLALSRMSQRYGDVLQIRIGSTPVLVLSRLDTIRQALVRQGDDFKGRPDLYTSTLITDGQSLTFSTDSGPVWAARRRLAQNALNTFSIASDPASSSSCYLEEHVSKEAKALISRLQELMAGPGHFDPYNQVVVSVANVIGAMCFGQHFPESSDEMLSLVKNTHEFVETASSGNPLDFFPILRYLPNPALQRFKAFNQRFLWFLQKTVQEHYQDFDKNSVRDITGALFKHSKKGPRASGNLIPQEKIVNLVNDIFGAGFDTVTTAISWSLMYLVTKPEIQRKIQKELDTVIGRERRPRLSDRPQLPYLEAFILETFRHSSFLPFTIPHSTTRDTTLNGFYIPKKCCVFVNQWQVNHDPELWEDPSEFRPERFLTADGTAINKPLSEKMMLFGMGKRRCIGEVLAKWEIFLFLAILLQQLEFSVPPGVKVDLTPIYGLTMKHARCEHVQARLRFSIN

| entrySmiles | inhibition at 2 h, 10 µM / % |
| --- | --- |
| N#Cc1cccc(-c2nc(C(F)F)c(C(=O)O)n2OCc2csc(N)n2)c1 | 9 |
| N#Cc1cccc(Oc2nc(-c3cccc(C#N)c3)ncc2C(=O)O)c1 | 6.5 |

* * *

test: Ratio of AUC in brain to plasma of male Sprague-Dawley rat at 10 mg/kg, iv measured for 0.083 to 24 hrs by LC-MS/MS analysis; type: ADME, organism-based; conditions: brain and plasma, time 0.083-24 hrs, read-out: Ratio AUC
The entries below come with measured Kp values attached.

| entrySmiles | Kp |
| --- | --- |
| N#Cc1cccc(Oc2nc(-c3cccc(C#N)c3)ncc2C(=O)O)c1 | 0.25 |
| N#Cc1cccc(-c2nc(C(F)F)c(C(=O)O)n2OCc2csc(N)n2)c1 | 0.073 |

* * *

assay: Protein binding in rat plasma at 10 uM incubated for 12 hrs by equilibrium dialysis method; format: ADME, cell-free; details: read-out: PPB (converted)

| entrySmiles | fraction unbound at 12 h, 10 µM |
| --- | --- |
| N#Cc1cccc(-c2nc(C(F)F)c(C(=O)O)n2OCc2csc(N)n2)c1 | 0.074 |
| N#Cc1cccc(Oc2nc(-c3cccc(C#N)c3)ncc2C(=O)O)c1 | 0.046 |

* * *

Listing of entries alongside the reported Vd.
experiment: Apparent volume of distribution male Sprague-Dawley rat at 10 mg/kg, iv measured up to 24 hrs by LC-MS/MS analysis; assay type: ADME, organism-based; conditions: in vivo, read-out: Vz
valueKind: Vd (L/kg)

| entrySmiles | readoutNumber |
| --- | --- |
| N#Cc1cccc(-c2nc(C(F)F)c(C(=O)O)n2OCc2csc(N)n2)c1 | 0.338 |
| N#Cc1cccc(Oc2nc(-c3cccc(C#N)c3)ncc2C(=O)O)c1 | 0.404 |

* * *

Measured Cmax values are reported for all entries that follow.
experiment: Cmax male Sprague-Dawley rat at 10 mg/kg, iv measured up to 24 hrs by LC-MS/MS analysis; format: ADME, organism-based; settings: in vivo
valueKind: Cmax (µg/mL)

| entrySmiles | readoutNumber |
| --- | --- |
| N#Cc1cccc(-c2nc(C(F)F)c(C(=O)O)n2OCc2csc(N)n2)c1 | 44.3 |
| N#Cc1cccc(Oc2nc(-c3cccc(C#N)c3)ncc2C(=O)O)c1 | 48.2 |
